assay: Cytotoxicity against human HEK293 cells assessed as growth inhibition at 10 uM after 72 hrs by MTS assay relative to control; format: cell-based; conditions: read-out: GI
Use y when the recorded inhibition at 72 h, 10 µM is no lower than 10%; use n when it is lower.

Structure Notation: CN1CCN(Cc2ccc(-c3ccc(-c4cc(C(=O)NC56CC7CC(CC(C7)C5)C6)no4)cc3)cc2)CC1
Group: y

Please tell me: is the compound O=C(NC12CC3CC(CC(C3)C1)C2)c1cc(-c2ccc(-c3ccco3)cc2)on1 at or over 10% in terms of inhibition at 72 h, 10 µM? y

Please tell me: is the compound CC(=O)c1cccc(-c2ccc(-c3cc(C(=O)NC45CC6CC(CC(C6)C4)C5)no3)cn2)c1 at or over 10% in terms of inhibition at 72 h, 10 µM? y

Please tell me: is the compound NC(=O)c1cccc(-c2cccc(OC(=O)NC3CCCCC3)c2)c1 at or over 10% in terms of inhibition at 72 h, 10 µM? n

Please tell me: is the compound COc1ccccc1-c1ccc(-c2cc(C(=O)NC34CC5CC(CC(C5)C3)C4)no2)cc1 at or over 10% in terms of inhibition at 72 h, 10 µM? y

Please tell me: is the compound O=C(NC12CC3CC(CC(C3)C1)C2)c1cc(-c2ccc(-c3ccncc3)cc2)on1 at or over 10% in terms of inhibition at 72 h, 10 µM? n

Please tell me: is the compound O=C(NC12CC3CC(CC(C3)C1)C2)c1cc(-c2ccc(-c3cnc4ccccc4c3)cc2)on1 at or over 10% in terms of inhibition at 72 h, 10 µM? y
